Can you tell me inhibition of ligand binding for the items I'm about to list?
# Tested System: Estrogen receptor (Homo sapiens) (UniProt P03372)
# Sequence (P03372 whole entry, looked up): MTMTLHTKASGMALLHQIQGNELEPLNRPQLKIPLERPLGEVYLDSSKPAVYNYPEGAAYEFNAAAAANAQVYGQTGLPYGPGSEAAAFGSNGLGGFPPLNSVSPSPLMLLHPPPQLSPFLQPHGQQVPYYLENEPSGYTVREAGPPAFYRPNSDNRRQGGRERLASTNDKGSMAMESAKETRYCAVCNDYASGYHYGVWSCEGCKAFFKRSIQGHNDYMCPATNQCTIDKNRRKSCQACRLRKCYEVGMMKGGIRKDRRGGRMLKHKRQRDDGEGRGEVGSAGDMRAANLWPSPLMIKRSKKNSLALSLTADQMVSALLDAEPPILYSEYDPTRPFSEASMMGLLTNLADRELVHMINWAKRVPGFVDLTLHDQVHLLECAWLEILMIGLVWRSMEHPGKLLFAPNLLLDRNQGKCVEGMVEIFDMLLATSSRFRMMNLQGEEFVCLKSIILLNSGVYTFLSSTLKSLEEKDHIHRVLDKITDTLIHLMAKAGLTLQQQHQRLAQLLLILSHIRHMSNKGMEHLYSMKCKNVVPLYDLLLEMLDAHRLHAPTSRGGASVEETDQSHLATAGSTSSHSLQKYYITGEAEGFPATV
# Assay Summary: ERalpha ligand binders by competition, primary screen, cell-based, Cos7 ERalpha-GFP, flow cytometry (AID 1211);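 note: 0% = DMSO vehicle wells and 100% = no E2-Alexa633 signal left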
# Test Conditions: fluorescent ligand competition, binding inhibition, at 0.1 µM, stronger effect = higher value
Could you give me the number in %? Just the number is fine.

Q. Supply recorded inhibition of ligand binding for O=C(CSc1nnc(SCC(=O)c2ccco2)s1)c1ccco1 here.
A. 28

Q. Supply inhibition of ligand binding value. Item: CC(C)C1Nc2c(O)cc(Cl)c([N+](=O)[O-])c2C2C=CCC21 (configuration not stated)
A. 16

Q. Note inhibition of ligand binding for the compound shown: Cc1cccc(N2CSC3=C(C#N)C(c4ccc(C)o4)CC(=O)N3C2)c1 (configuration not stated)
A. 13

Q. Find the measured inhibition of ligand binding of Cc1ccc2nc(/C(C#N)=C\c3ccc(N4CCCCC4)c([N+](=O)[O-])c3)[nH]c2c1 and report it.
A. 25

Q. Supply recorded inhibition of ligand binding for Cc1ccc2occ(C3NC(C(=O)O)CS3)c(=O)c2c1 (configuration not stated) here.
A. 27

Q. Give inhibition of ligand binding for the following compound: COc1ccc(C(N)CCc2ccc(C)o2)cc1 (configuration not stated)
A. 39

Q. Tell us which inhibition of ligand binding value is on record for Cc1cc(C)nc(NC(=O)CSc2nn(C)c(=S)s2)n1
A. 34
